STUDY_TARGET: human F508del-CFTR (Homo sapiens, UniProt P13569, DEL508-508)
Sequence (P13569 with tags, fused parts or gaps DEL508-508): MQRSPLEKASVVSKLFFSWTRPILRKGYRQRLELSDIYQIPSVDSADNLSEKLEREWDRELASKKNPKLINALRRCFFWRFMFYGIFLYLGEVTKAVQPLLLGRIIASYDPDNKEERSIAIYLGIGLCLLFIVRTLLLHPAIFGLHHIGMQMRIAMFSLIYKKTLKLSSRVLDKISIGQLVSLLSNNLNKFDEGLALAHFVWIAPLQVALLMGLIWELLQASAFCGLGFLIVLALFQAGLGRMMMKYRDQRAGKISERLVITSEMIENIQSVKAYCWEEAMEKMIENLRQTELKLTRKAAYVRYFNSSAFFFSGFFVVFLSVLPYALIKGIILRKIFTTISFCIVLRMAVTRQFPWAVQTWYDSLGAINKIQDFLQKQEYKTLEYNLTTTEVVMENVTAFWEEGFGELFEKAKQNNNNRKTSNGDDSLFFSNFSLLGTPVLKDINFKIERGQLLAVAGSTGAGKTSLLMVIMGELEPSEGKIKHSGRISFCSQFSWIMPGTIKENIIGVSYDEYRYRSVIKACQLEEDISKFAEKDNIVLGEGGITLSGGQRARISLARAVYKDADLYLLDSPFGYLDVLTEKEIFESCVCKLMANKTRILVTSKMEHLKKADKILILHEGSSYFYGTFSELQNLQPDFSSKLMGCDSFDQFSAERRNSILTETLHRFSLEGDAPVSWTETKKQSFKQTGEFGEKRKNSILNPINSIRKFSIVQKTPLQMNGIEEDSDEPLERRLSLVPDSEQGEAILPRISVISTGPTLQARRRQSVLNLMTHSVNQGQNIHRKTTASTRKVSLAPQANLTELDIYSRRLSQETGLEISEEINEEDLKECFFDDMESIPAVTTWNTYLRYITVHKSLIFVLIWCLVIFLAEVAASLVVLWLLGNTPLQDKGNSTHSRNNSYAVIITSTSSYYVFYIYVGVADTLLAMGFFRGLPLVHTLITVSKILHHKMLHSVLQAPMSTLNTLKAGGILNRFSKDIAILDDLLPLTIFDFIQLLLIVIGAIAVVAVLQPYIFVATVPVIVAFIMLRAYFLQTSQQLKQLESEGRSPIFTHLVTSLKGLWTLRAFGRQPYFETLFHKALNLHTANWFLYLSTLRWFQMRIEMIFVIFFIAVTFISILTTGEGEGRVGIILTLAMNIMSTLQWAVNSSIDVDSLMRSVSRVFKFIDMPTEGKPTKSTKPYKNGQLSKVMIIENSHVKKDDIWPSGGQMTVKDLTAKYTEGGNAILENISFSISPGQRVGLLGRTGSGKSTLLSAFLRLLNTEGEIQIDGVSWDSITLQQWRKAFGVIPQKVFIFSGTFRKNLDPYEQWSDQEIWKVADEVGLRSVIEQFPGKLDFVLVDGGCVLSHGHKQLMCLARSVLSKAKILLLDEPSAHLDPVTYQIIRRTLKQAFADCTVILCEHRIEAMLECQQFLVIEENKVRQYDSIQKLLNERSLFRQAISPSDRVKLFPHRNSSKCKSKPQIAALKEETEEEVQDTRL
METHOD: F508del-CFTR cell surface expression (corrector activity), DiscoveRx ß-galactosidase complementation chemiluminescence assay in recombinant U2OS cell line
SETUP_CONDITIONS: EC50, F508del-CFTR cell surface expression, U2OS cells, 16h compound incubation; geomean values
pEC50: −log10 of the molar value.
Label Met when pEC50 is at or above 7; anything below gets Not met.

Say whether CC(C)C[C@H]1C(=O)N(C)[C@H](CC2CCCCC2)C(=O)N[C@H](Cc2ccccc2)COc2cnc3ccc(F)cc3c2C(=O)N[C@H](C(=O)NCCc2cc(C3CC3)no2)CC(=O)N1C [Example 697] shows pEC50 of 7 or more. Met

Say whether COc1nccc2c1C(=O)N[C@H](C(=O)NCCc1cc(C3CC3)no1)CC(=O)N(C)[C@@H](CC(C)C)C(=O)N1CCCC[C@@H]1C(=O)N[C@H](Cc1ccccc1)CO2 [Example 523] shows pEC50 of 7 or more. Not met

Say whether CCOC(=O)N1CCN2C(=O)[C@H](CC(C)C)N(C)C(=O)C[C@@H](C(=O)NCCc3cccc(OC)c3)NC(=O)c3c(ccc4ccccc34)OC[C@@H](Cc3ccccc3)NC(=O)[C@H]2C1 [Example 755] shows pEC50 of 7 or more. Not met

---

STUDY_TARGET: human F508del-CFTR (Homo sapiens, UniProt P13569, DEL508-508)
METHOD: F508del-CFTR cell surface expression (corrector activity), DiscoveRx ß-galactosidase complementation chemiluminescence assay in recombinant U2OS cell line;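 also: U2OS cells co-expressing ProLink-tagged F508del-CFTR and a membrane-anchored enzyme acceptor, where more surface CFTR restores β-galactosidase activity measured by chemiluminescence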
SETUP_CONDITIONS: EC50, F508del-CFTR cell surface expression, U2OS cell line, 16h compound incubation; geomean values
OBSERVED_PROPERTY: pEC50
Kindly note that pEC50 refers to -log10 of the concentration in mol/L and answer with the value alone.

Give pEC50 for the following compound: COc1cc2c(cc1CCNC(=O)[C@@H]1CC(=O)N(C)[C@@H](CC(C)C)C(=O)N3CCOC[C@@H]3C(=O)N[C@H](Cc3ccccc3)COc3ccc4ccccc4c3C(=O)N1)OCCO2 6.58

Give pEC50 for the following compound: CC(C)C[C@H]1C(=O)N(CCC2CCCCC2)CC(=O)N[C@H](Cc2ccccc2)COc2ccc3c(c2C(=O)N[C@H](C(=O)NCCc2ccc4c(c2)OCO4)CC(=O)N1C)OCO3 7.02

Give pEC50 for the following compound: Cc1cc(CCNC(=O)[C@@H]2CC(=O)N(C)[C@@H](CC(C)C)C(=O)N(C)C3(CC3)C(=O)N[C@H](Cc3ccccc3)COc3cnc4ccc(F)cc4c3C(=O)N2)on1 6.57

Give pEC50 for the following compound: CC(C)C[C@H]1C(=O)N2CCOC[C@@H]2C(=O)N[C@H](Cc2ccccc2)COc2ccc3ccccc3c2C(=O)N[C@H](C(=O)NCCc2ccc(-n3nccn3)cc2)CC(=O)N1C 6.47

Give pEC50 for the following compound: Cc1cnc(CCNC(=O)[C@@H]2CC(=O)N(C)[C@@H](CC(C)C)C(=O)N3CCCC[C@@H]3C(=O)N[C@H](Cc3ccccc3)COc3ccc4ncn(C)c4c3C(=O)N2)s1 (racemic) 6.08

Give pEC50 for the following compound: CCc1ccc(CCNC(=O)[C@@H]2CC(=O)N(C)[C@@H](CC(C)C)C(=O)N3CCOC[C@@H]3C(=O)N[C@H](Cc3ccccc3)COc3cnc4ccccc4c3C(=O)N2)cc1 6.67

Give pEC50 for the following compound: Cc1cc(CCNC(=O)[C@@H]2CC(=O)N(C)[C@@H](CC(C)C)C(=O)N3CCCC[C@@H]3C(=O)N[C@H](Cc3ccccc3)COc3cnc4ccccc4c3C(=O)N2)on1 6.60

Give pEC50 for the following compound: COc1cccc2c1OC[C@@H](NC(=O)[C@@H]1CC(=O)N(C)[C@@H](CC(C)C)C(=O)N3CCOC[C@@H]3C(=O)N[C@H](Cc3ccccc3)COc3ccc4ccccc4c3C(=O)N1)C2 6.50

Give pEC50 for the following compound: COc1nccc2c1C(=O)N[C@H](C(=O)NCCc1cc(C(F)F)no1)CC(=O)N(C)[C@@H](CC(C)C)C(=O)N1CCCC[C@@H]1C(=O)N[C@H](Cc1ccccc1)CO2 6.32

Give pEC50 for the following compound: COc1nccc2c1C(=O)N[C@H](C(=O)NCCc1ccc(-c3ncccn3)cc1)CC(=O)N(C)[C@@H](CC(C)C)C(=O)N1CCCC[C@@H]1C(=O)N[C@H](Cc1ccccc1)CO2 6.14

Give pEC50 for the following compound: [2H]C([2H])([2H])Oc1cccc2c1C(=O)N[C@H](C(=O)NCCc1cccc(OC)c1)CC(=O)N(C)[C@@H](CC(C)C)C(=O)N(CCC1CCCCC1)CC(=O)N[C@H](Cc1ccccc1)CO2 6.74

Give pEC50 for the following compound: CC(C)C[C@H]1C(=O)N2CCCC[C@@H]2C(=O)N[C@H](Cc2ccccc2)COc2cnc3ccccc3c2C(=O)N[C@H](C(=O)NCCc2cc(F)cc(F)c2)CC(=O)N1C 6.58

Give pEC50 for the following compound: COc1cc2c(cc1OC)C(=O)N[C@H](C(=O)NCCc1ccc3c(c1)OCCCC3)CC(=O)N(C)[C@@H](CC(C)C)C(=O)N(C)CC(=O)N[C@H](Cc1ccccc1)CO2 6.60

Give pEC50 for the following compound: CC(C)C[C@H]1C(=O)N2CCCC[C@@H]2C(=O)N[C@H](Cc2ccccc2)COc2cnc3ccccc3c2C(=O)N[C@H](C(=O)NCCc2cccc(F)c2F)CC(=O)N1C 6.84

Give pEC50 for the following compound: COc1cc(OC)c2c(c1)OC[C@@H](Cc1ccccc1)NC(=O)CN(CCC1CCCCC1)C(=O)[C@H](CC(C)C)N(C)C(=O)C[C@@H](C(=O)NCCc1ccc3c(c1)OCCC3)NC2=O 6.83

Give pEC50 for the following compound: COc1nccc2c1C(=O)N[C@H](C(=O)NCCc1ccccc1)CC(=O)N(C)[C@@H](CC(C)C)C(=O)N1CCCC[C@@H]1C(=O)N[C@H](Cc1ccccc1)CO2 6.21

Give pEC50 for the following compound: CC(C)C[C@H]1C(=O)N2CCCC[C@@H]2C(=O)N[C@H](Cc2ccccc2)COc2ccc3ncn(C)c3c2C(=O)N[C@H](C(=O)NCCc2noc3ccccc23)CC(=O)N1C 6.56
